Tested on: Hs-578T
METHOD_NOTES: Growth inhibition of human Hs 578T cells at 10^-5 M incubated for 48 hrs by sulforhodamine B assay
Format: functional
TEST_CONDITIONS: read-out: GI
READOUT_TYPE: inhibition of growth at 10 µM (%)
Please respond with the number in % and leave the unit unwritten.

Q) Data request, read-out inhibition of growth at 10 µM, for Oc1ccccc1C1NC(=S)Nc2c1sc1ccc(Cl)cc21 (centres undefined)
A) 8.15

Q) Thanks! And O=C1Nc2c(sc3ccc(Cl)cc23)C(c2cccc([N+](=O)[O-])c2)N1 (centres undefined) ?
A) 3.78

Q) Thanks! And O=[N+]([O-])c1cccc(C2c3sc4ccc(Cl)cc4c3N=C3NN=C(c4cccc(F)c4)N32)c1 (centres undefined) ?
A) 1.64

Q) Thanks! And O=[N+]([O-])c1cccc(C2c3sc4ccc(Cl)cc4c3N=C3NN=NN32)c1 (centres undefined) ?
A) -11.2

Q) Thanks! And Cc1cc(C)n(C2=Nc3c(sc4ccc(Cl)cc34)C(c3cccc([N+](=O)[O-])c3)N2)n1 (centres undefined) ?
A) 0.17

Q) Thanks! And O=[N+]([O-])c1cccc(C2c3sc4ccc(Cl)cc4c3N=C3NN=CN32)c1 (centres undefined) ?
A) -18.1

Q) Thanks! And O=C1/C(=C\c2cccc(Br)c2)Sc2ccc(Cl)cc21 ?
A) -8.14

Q) Thanks! And O=C1SC2=Nc3c(sc4ccc(Cl)cc34)C(c3ccc4ccccc4c3)N2C1=O (centres undefined) ?
A) 1.4

Q) Thanks! And N=C1Nc2c(sc3ccc(Cl)cc23)C(c2cccc(Br)c2)N1 (centres undefined) ?
A) -4.14

Q) Thanks! And S=C1Nc2c(sc3ccc(Cl)cc23)C(c2cccc(Br)c2)N1 (centres undefined) ?
A) 4.32

Q) Thanks! And O=C1/C(=C\c2ccccc2O)Sc2ccc(Cl)cc21 ?
A) 3.91

Q) Thanks! And NNC1=Nc2c(sc3ccc(Cl)cc23)C(c2cccc([N+](=O)[O-])c2)N1 (centres undefined) ?
A) -2.75

Q) Thanks! And O=C1Nc2c(sc3ccc(Cl)cc23)C(c2cccc(Br)c2)N1 (centres undefined) ?
A) -5.56

Q) Thanks! And S=C1Nc2c(sc3ccc(Cl)cc23)C(c2ccc3ccccc3c2)N1 (centres undefined) ?
A) 8.86

Q) Thanks! And O=C1CSC2=Nc3c(sc4ccc(Cl)cc34)C(c3ccc4ccccc4c3)N12 (centres undefined) ?
A) -0.18

Q) Thanks! And O=[N+]([O-])c1cccc(C2NC(N3CCOCC3)=Nc3c2sc2ccc(Cl)cc32)c1 (centres undefined) ?
A) 1.47

Q) Thanks! And O=[N+]([O-])c1cccc(C2NC(=S)Nc3c2sc2ccc(Cl)cc32)c1 (centres undefined) ?
A) 11.4

Q) Thanks! And O=C1/C(=C\c2ccc3ccccc3c2)Sc2ccc(Cl)cc21 ?
A) -2.83

Q) Thanks! And N=C1Nc2c(sc3ccc(Cl)cc23)C(c2ccc3ccccc3c2)N1 (centres undefined) ?
A) 14.6

Q) Thanks! And N=C1Nc2c(sc3ccc(Cl)cc23)C(c2ccccc2O)N1 (centres undefined) ?
A) -10.5

Q) Thanks! And CCOC(=O)CSC1=Nc2c(sc3ccc(Cl)cc23)C(c2cccc([N+](=O)[O-])c2)N1 (centres undefined) ?
A) -3.04

Q) Thanks! And O=C1CC(=O)N(C2=Nc3c(sc4ccc(Cl)cc34)C(c3cccc([N+](=O)[O-])c3)N2)N1 (centres undefined) ?
A) 5.51

Q) Thanks! And O=C1Nc2c(sc3ccc(Cl)cc23)C(c2ccc3ccccc3c2)N1 (centres undefined) ?
A) 3.46

Q) Thanks! And O=C1CSC2=Nc3c(sc4ccc(Cl)cc34)C(c3cccc([N+](=O)[O-])c3)N12 (centres undefined) ?
A) -2.09

Q) Thanks! And NC(=O)CSC1=Nc2c(sc3ccc(Cl)cc23)C(c2cccc([N+](=O)[O-])c2)N1 (centres undefined) ?
A) 1.5

Q) Thanks! And O=C1Nc2c(sc3ccc(Cl)cc23)C(c2ccccc2O)N1 (centres undefined) ?
A) 3.74

Q) Thanks! And N=C1Nc2c(sc3ccc(Cl)cc23)C(c2cccc([N+](=O)[O-])c2)N1 (centres undefined) ?
A) -17.4

Q) Thanks! And N#Cc1cnn(C2=Nc3c(sc4ccc(Cl)cc34)C(c3cccc([N+](=O)[O-])c3)N2)c1N (centres undefined) ?
A) 3.32

Q) Thanks! And O=C1/C(=C\c2cccc([N+](=O)[O-])c2)Sc2ccc(Cl)cc21 ?
A) -8.12
